- Tested on: MS2 coat protein
- Test details: apparent KD of MS2 coat protein; higher = weaker reporter binding
- Conditions used: Eterna round: R101; input ligand: FMN 200 uM
Reported metric: apparent KD of MS2 coat protein (nM)

- AAUAAUCUUUAAGGAUAUCAGUGGCAAAGCCACUGAGAAGGUGAGGAUCACCCAUCUACGUGACCCUGGAAACAGGGUCACGAA [#SharedSequence - ExNG1-12] (puzzle (switch architecture): Exclusion NG 1): 84.6
- AGAGCUGCUCAGAAGGAGGAUCACCCUUUCGAAAGAAAGACGGAGGCUGAAAAGCCUCCGAAAUUCUAGGAUAUGAGCAGCUCA [#SharedSequence - IExNG2: 1] (puzzle (switch architecture): Inverted Exclusion NG 2): 411
- CGCUAUGACAUGAGGAUCACCCAUGUAUACAUGGGAAUGACGUAGGAUAUGCAGAAGAUUAAAGUGCAGAAGGACGGCUUAGCG [JR #DistanceClose #Static #NP SSNG3 Sub064] (puzzle (switch architecture): Same State NG 3): 1020
- AGGUGAGCUCGAUGGCGACAUGAGGAUCACCCAUGUACGAUCAGAAGGGCUCGGGCAAGAAGUGGGCAGGAUAUGGUCGGUGCC [Xeadion] (puzzle (switch architecture): Inverted Exclusion NG 3): 4.5
